# procedure.summary: mRNA encapsulation efficiency of LNP formulations (Quant-it Ribogreen assay with Triton-X100)
# Assay type: physicochemical
# cond: Table 5; N/P ratio 3:1; DMPE-PEG2000
We begin with a simple list: items and their reported % EE.
Form entry: value (%) — number only.

Below, 5 compounds whose answers are already recorded.
INSERT INTO results (compound, reading_unit, test_value) VALUES
  ('CCCCCCCCC(CC)OC(=O)CCCCCCCC(CCCCCCCC(=O)OC(CCCCCCCC)CCCCCCCC)NC1CC2(COC2)C1 (stereo not drawn) [Compound 38]', '%', 97),
  ('CCCCCCCCC(C)OC(=O)CCCCCCCC(CCCCCCCC(=O)OC(CCCCCCCC)CCCCCCCC)NCC1CCOC1 (stereo not drawn) [Compound 36]', '%', 96),
  ('CCCCCCCCC(CC)OC(=O)CCCCCCCC(CCCCCCCC(=O)OC(CCCCCCCC)CCCCCCCC)NCC1CCOC1 (stereo not drawn) [Compound 40]', '%', 97),
  ('CCCCCCCCC(CC)OC(=O)CCCCCCCC(CCCCCCCC(=O)OC(CCCCCCCC)CCCCCCCC)NCC1COC1 (stereo not drawn) [Compound 41]', '%', 98),
  ('CCCCCCCCC(CCCCCCCC)OC(=O)CCCCCCCC(CCCCCCCC(=O)OCC(C)CCCCCCC)NC1CC2(COC2)C1 (stereo not drawn) [Compound 22]', '%', 95);

Data request: Could you share which % EE value was measured for CCCCCCCCC(CCCCCCCC)OC(=O)CCCCCCCC(CCCCCCCC(=O)OCCC(CC)CCCCCC)NC1CC2(COC2)C1 (stereo not drawn) [Compound 44] ?
Data returned: 97

* * *

# System: Female BALB/c mice
# procedure.summary: eGFP expression in the liver at 24 hours after intravenous administration of LNP formulations to mouse (ELISA)
# Format: in vivo
# cond: Table 5, 0.3 mg/kg, LNP N/P 3:1, DMPE-PEG2000
quantity: Liver eGFP protein (ng/g tissue)
Form entry: value (ng/g tissue) — number only.

Data request: Could you share which Liver eGFP protein (ng/g tissue) value was measured for CCCCCCCCC(C)OC(=O)CCCCCCCC(CCCCCCCC(=O)OC(CCCCCCCC)CCCCCCCC)NCC1COC1 (stereo not shown) [Compound 37] ?
Data returned: 1225.5

Data request: Lookup CCCCCCCCC(CC)OC(=O)CCCCCCCC(CCCCCCCC(=O)OC(CCCCCCCC)CCCCCCCC)NCC1CCOC1 (stereo not shown) [Compound 40]
Data returned: 3658.4

Data request: Lookup CCCCCCCCC(CC)OC(=O)CCCCCCCC(CCCCCCCC(=O)OC(CCCCCCCC)CCCCCCCC)NCC1CCOCC1 (stereo not shown) [Compound 39]
Data returned: 3383.8

Data request: Lookup CCCCC/C=C\C/C=C\CCCCCCCCC(CCCCCCCC/C=C\C/C=C\CCCCC)OC(=O)CCCN(C)C [MC3, reference compound]
Data returned: 1114.4

Data request: Lookup CCCCCCCCC(CCCCCCCC)OC(=O)CCCCCCCC(CCCCCCCC(=O)OCCC(C)CCCCCC)NCC1CCOCC1 (stereo not shown) [Compound 43]
Data returned: 2590.9

Data request: Lookup CCCCCCCCC(C)OC(=O)CCCCCCCC(CCCCCCCC(=O)OC(CCCCCCCC)CCCCCCCC)NCC1CCOCC1 (stereo not shown) [Compound 35]
Data returned: 5974.6

Data request: Lookup CCCCCCCCC(CCCCCCCC)OC(=O)CCCCCCCC(CCCCCCCC(=O)OCCC(C)CCCCCC)NC1CC2(COC2)C1 (stereo not shown) [Compound 42]
Data returned: 1868.2
